Where do the numbers come from? From ChEMBL document CHEMBL2046317.

Measured IC50 accompanies every entry in the list below.
- Test system: MRC5
- assay: Growth inhibition of human MRC5 cells after 48 hrs by SRB assay
- Type: cell-based
- experimental_conditions: MRC5, 48 h
measured_parameter: IC50 (nM)

[
  {
    "compound": "COc1ccc(-c2nnnn2-c2cc(OC)c(OC)c(OC)c2)cc1O",
    "quantitative_readout": 12
  },
  {
    "compound": "COc1ccc(-c2nnnn2-c2cc(I)c(OC)c(I)c2)cc1O",
    "quantitative_readout": 2.2
  },
  {
    "compound": "COc1ccc(-c2nnnn2-c2cc(Br)c(OC)c(Br)c2)cc1O",
    "quantitative_readout": 5.7
  },
  {
    "compound": "COc1ccc(/C=C\\c2cc(OC)c(OC)c(OC)c2)cc1O [COMBRETASTATIN A4]",
    "quantitative_readout": 2.8
  }
]

---

- Species: Bos taurus
- assay: Inhibition of purified bovine tubulin polymerization at 5 uM measured 30 secs intervals for 60 mins by spectrophotometer analysis relative to control
Measured fold change (FC) accompanies every entry in the list below.
measured_parameter: fold change (FC)

[
  {
    "record_smiles": "COc1ccc(-c2nnnn2-c2cc(Br)c(OC)c(Br)c2)cc1O",
    "measured_parameter": "fold change (FC)",
    "quantitative_readout": 1.5
  },
  {
    "record_smiles": "COc1ccc(/C=C\\c2cc(OC)c(OC)c(OC)c2)cc1O",
    "measured_parameter": "fold change (FC)",
    "quantitative_readout": 3
  },
  {
    "record_smiles": "COc1ccc(-c2nnnn2-c2cc(I)c(OC)c(I)c2)cc1O",
    "measured_parameter": "fold change (FC)",
    "quantitative_readout": 1.7
  },
  {
    "record_smiles": "COc1ccc(-c2nnnn2-c2cc(OC)c(OC)c(OC)c2)cc1O",
    "measured_parameter": "fold change (FC)",
    "quantitative_readout": 2.9
  }
]
